Task for the reader: assign each of the following molecules its reported melting point.

Give its melting point value. Item: Nc1nnc(CO)s1
169 to 171 °C

Give its melting point value. Item: CC(=O)c1ccc2ccccc2n1
47 to 49 °C

Give its melting point value. Item: Cc1cc(NC(=O)OCC(F)(F)F)n(CCC#N)n1
128 to 130 °C

Give its melting point value. Item: CN(C)c1cc2ccccc2c(=O)[nH]1
185 to 187 °C

Give its melting point value. Item: CN1CCN(c2ccc(N)c(C(F)(F)F)c2)CC1
87 to 89 °C

Give its melting point value. Item: O=C(O)c1oc2ccccc2c1CO
153 to 155 °C

Give its melting point value. Item: O=C(O)c1n[nH]c2c1CCC2
287 to 289 °C

Give its melting point value. Item: COc1ccc2c(C)cc(NN)nc2c1
250 to 252 °C

Give its melting point value. Item: NC(=O)c1ccc(=O)[nH]n1
326 to 328 °C

Give its melting point value. Item: Nc1ccnn1Cc1ccc(Cl)c(F)c1
68 to 70 °C

Give its melting point value. Item: CN1CCCN(C(=O)c2ccccc2N)CC1
80 to 82 °C

Give its melting point value. Item: O=C1Nc2cc(F)ccc2C1=O
184 to 186 °C

Give its melting point value. Item: O=C1NC(=O)C(Cc2c[nH]c3ccccc23)N1 (centres undefined)
235 to 237 °C

Give its melting point value. Item: CCOc1ccc(NC(C)=O)cc1S(N)(=O)=O
187 to 189 °C

----------
Task for the reader: assign each of the following compounds its reported melting point.

Give its melting point value. Item: COc1ccc(CCC(=O)O)cc1Br
95 to 97 °C

Give its melting point value. Item: NC(=O)N1CCN(c2ccccc2F)CC1
150 to 152 °C

Give its melting point value. Item: NC(Cc1ccc(O)cc1)c1nc2ccccc2[nH]1 (centres undefined)
193 to 195 °C

Give its melting point value. Item: O=C(Nc1ccsc1C(=O)O)c1ccncc1
230 to 232 °C

Give its melting point value. Item: CC(C)(C)OC(=O)NNC(=O)C(F)(F)F
119 to 121 °C

Give its melting point value. Item: O=CCN1C(=O)COc2ccccc21
97 to 99 °C

Give its melting point value. Item: Nc1nnc(CC2CCCCC2)s1
250 to 252 °C

Give its melting point value. Item: CC(Br)c1cccc2ccccc12 (centres undefined)
36 to 38 °C

Give its melting point value. Item: Cc1nn(-c2ccccc2)c(CCl)c1C#N
130 to 132 °C

Give its melting point value. Item: CC(CC(=O)O)c1cccc(F)c1 (centres undefined)
33 to 35 °C

Give its melting point value. Item: COc1ccc(S(=O)(=O)N2CCCCCC2)cc1NC(=O)CCl
105 to 107 °C

Give its melting point value. Item: O=C1CNC(=O)N1CCCCl
90 to 92 °C

Give its melting point value. Item: CC(=O)c1cc(Cl)cc(CCl)c1O
72 to 74 °C

Give its melting point value. Item: O=C(NC1CC1)n1ccnc1
89 to 91 °C

----------
Task for the reader: assign each of the following compounds its reported melting point.

Give its melting point value. Item: COC(=O)c1cc(Cl)cc([N+](=O)[O-])c1O
163 to 165 °C

Give its melting point value. Item: N#CC1(CS(N)(=O)=O)CC1
109 to 111 °C

Give its melting point value. Item: CC(Cl)C(=O)N1CCNC1=O (stereo not drawn)
116 to 120 °C

Give its melting point value. Item: CC(C)C(Oc1ccccc1C#N)C(=O)O (stereo not drawn)
67 to 69 °C

Give its melting point value. Item: CC1CN(c2ccccc2C=O)CC(C)O1 (stereo not drawn)
94 to 96 °C

Give its melting point value. Item: O=C(O)c1csc(Cc2ccc(F)cc2)n1
149 to 151 °C

Give its melting point value. Item: CN(Cc1ccccc1)C(N)=O
134 to 136 °C

Give its melting point value. Item: CC(=O)CC(=O)Nc1cccnc1Cl
83 to 85 °C

Give its melting point value. Item: N#Cc1ccc(N2CCN(c3ccc(F)cc3)CC2)nc1
166 to 168 °C

Give its melting point value. Item: CCOC(=O)c1cnc(C(=O)O)c(Cl)c1
114 to 116 °C

Give its melting point value. Item: CCOC(=O)C(O)(CC#N)c1nccn1C (stereo not drawn)
117 to 119 °C

Give its melting point value. Item: NC(=O)c1ncn2c(C(=O)O)cc(-c3ccccc3)nc12
254 to 256 °C

Give its melting point value. Item: Cc1cccc(NC(=O)C(C)Cl)c1 (stereo not drawn)
128 to 130 °C
